Values were extracted from the kinase profiling compilation of Christmann-Franck et al. (2016).

Provide the recorded kinase still bound, per cent of control for the entries that follow.
target: TAOK1 (human) (UniProt Q7L7X3); assay: KINOMEscan competition binding; conditions: compound 10.0 µM
Sequence (Q7L7X3 whole entry, looked up): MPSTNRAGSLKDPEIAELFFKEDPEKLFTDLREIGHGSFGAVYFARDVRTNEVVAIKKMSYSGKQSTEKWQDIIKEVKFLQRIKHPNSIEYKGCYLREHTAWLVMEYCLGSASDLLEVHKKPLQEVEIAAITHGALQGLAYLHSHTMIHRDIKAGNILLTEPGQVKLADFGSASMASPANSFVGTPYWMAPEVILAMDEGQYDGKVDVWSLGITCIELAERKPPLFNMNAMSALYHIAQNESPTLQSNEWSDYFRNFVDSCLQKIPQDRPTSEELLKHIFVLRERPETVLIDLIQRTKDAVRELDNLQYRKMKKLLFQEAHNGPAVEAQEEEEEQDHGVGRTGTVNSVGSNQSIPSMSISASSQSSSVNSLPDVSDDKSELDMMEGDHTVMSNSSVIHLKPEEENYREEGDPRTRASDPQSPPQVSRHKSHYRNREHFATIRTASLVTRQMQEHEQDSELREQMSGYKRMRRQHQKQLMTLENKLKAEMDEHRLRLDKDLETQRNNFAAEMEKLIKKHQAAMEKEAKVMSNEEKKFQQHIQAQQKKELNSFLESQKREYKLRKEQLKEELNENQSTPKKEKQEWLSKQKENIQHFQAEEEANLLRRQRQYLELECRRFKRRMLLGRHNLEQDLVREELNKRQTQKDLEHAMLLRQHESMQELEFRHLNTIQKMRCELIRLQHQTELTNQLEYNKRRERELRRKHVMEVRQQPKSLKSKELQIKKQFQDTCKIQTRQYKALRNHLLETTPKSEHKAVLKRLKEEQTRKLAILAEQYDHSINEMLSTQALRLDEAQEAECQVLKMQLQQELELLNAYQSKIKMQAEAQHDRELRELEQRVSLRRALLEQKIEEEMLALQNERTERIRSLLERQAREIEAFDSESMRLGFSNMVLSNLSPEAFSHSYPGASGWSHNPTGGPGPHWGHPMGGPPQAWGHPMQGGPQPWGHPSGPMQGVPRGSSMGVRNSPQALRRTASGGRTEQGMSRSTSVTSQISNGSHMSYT
Give bare numbers, in %.

Worked cases, answers included:
{"columns": ["Input Smiles", "Measured Target", "Unit Tag", "kinase still bound, per cent of control"],
 "data": [
  ["CCCS(=O)(=O)Nc1ccc(F)c(C(=O)c2c[nH]c3ncc(Cl)cc23)c1F", "TAOK1 (human) (UniProt Q7L7X3)", "%", 52],
  ["CCc1nc(-c2cccc(C)c2)c(-c2ccnc(NC(=O)c3ccccc3)c2)s1", "TAOK1 (human) (UniProt Q7L7X3)", "%", 72],
  ["C=CC(=O)Nc1ccc(C(=O)c2sc(Nc3ccc(N4CCN(C)CC4)cc3OC)nc2N)cc1", "TAOK1 (human) (UniProt Q7L7X3)", "%", 32],
  ["N#C/C(=C1/Nc2ccccc2S1)c1ccnc(NCCc2cccnc2)n1", "TAOK1 (human) (UniProt Q7L7X3)", "%", 38],
  ["CNC(=O)Nc1ccc(-c2nc(N3CC4CCC(C3)O4)c3cnn(C4CCC5(CC4)OCCO5)c3n2)cc1", "TAOK1 (human) (UniProt Q7L7X3)", "%", 100]
]}

Batch request: kinase still bound, per cent of control per item, same order as input.
1. O=c1[nH]c2ccccc2n1C1CCN(Cc2ccc(-c3nc4cc5[nH]cnc5cc4nc3-c3ccccc3)cc2)CC1
2. CCN(CCO)CCCOc1ccc2c(Nc3cc(CC(=O)Nc4cccc(F)c4)[nH]n3)ncnc2c1
3. COc1cc2c(Nc3ccc(NC(=O)c4ccccc4)cc3)ncnc2cc1OCCCN1CCOCC1
4. CC(=O)c1c(C)c2cnc(Nc3ccc(N4CCNCC4)cn3)nc2n(C2CCCC2)c1=O

1. 91
2. 59
3. 95
4. 11

###

target: UniProtKB P07947; assay: KINOMEscan competition binding; conditions: compound 10.0 µM
Sequence (P07947 whole entry, looked up): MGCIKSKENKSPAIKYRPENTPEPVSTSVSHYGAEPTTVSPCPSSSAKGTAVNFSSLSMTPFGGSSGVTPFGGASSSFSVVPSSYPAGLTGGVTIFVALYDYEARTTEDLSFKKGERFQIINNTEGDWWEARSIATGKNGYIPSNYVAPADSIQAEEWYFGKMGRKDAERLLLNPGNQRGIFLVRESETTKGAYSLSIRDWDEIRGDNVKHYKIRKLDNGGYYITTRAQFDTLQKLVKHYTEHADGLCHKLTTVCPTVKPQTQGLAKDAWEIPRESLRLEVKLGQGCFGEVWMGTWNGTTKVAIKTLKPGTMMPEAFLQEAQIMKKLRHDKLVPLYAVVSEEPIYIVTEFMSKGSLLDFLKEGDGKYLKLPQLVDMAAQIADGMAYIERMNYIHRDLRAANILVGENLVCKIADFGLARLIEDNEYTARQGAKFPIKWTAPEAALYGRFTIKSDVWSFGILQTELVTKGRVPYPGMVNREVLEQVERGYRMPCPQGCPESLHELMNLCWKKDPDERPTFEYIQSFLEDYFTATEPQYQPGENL
// assign satisfied if kinase still bound, per cent of control falls strictly below 80%, else not satisfied (ties count as not satisfied)

Solved entries (count: 6):
{"columns": ["Compound", "Measured Target", "Qualitative Label"],
 "data": [
  ["COc1cc2c(Nc3ccc(NC(=O)c4ccccc4)cc3)ncnc2cc1OCCCN1CCOCC1", "UniProtKB P07947", "satisfied"],
  ["CCc1nc(-c2cccc(C)c2)c(-c2ccnc(NC(=O)c3ccccc3)c2)s1", "UniProtKB P07947", "satisfied"],
  ["COc1cc(C)c(Sc2cnc(NC(=O)c3ccc(CNC(C)C(C)C)cc3)s2)cc1C(=O)N1CCN(C(C)=O)CC1 (stereo not drawn)", "UniProtKB P07947", "satisfied"],
  ["C=CC(=O)Nc1ccc(C(=O)c2sc(Nc3ccc(N4CCN(C)CC4)cc3OC)nc2N)cc1", "UniProtKB P07947", "not satisfied"],
  ["CC1=C(C(=O)Nc2cc3cn[nH]c3cc2F)C(c2ccc(C(F)(F)F)cc2)CC(=O)N1 (stereo not drawn)", "UniProtKB P07947", "satisfied"],
  ["CCOc1cc(N2CCC(O)CC2)ccc1Nc1ncc2c(n1)N(C)c1ccccc1C(=O)N2C", "UniProtKB P07947", "not satisfied"]
]}

Hi there! Is kinase still bound, per cent of control for `COc1ccc(N(C(=O)Oc2cc(C(=O)Nc3cccc(C(F)(F)F)c3)ccc2C)c2ccnc(Nc3ccc(N4CCN(C)CC4)cc3)n2)c(OC)c1` below 80%, do you know?
satisfied

###

biological target: TNNI3K (human) (UniProt Q59H18); test: KINOMEscan competition binding; conditions: compound 10.0 µM
Sequence (Q59H18 whole entry, looked up): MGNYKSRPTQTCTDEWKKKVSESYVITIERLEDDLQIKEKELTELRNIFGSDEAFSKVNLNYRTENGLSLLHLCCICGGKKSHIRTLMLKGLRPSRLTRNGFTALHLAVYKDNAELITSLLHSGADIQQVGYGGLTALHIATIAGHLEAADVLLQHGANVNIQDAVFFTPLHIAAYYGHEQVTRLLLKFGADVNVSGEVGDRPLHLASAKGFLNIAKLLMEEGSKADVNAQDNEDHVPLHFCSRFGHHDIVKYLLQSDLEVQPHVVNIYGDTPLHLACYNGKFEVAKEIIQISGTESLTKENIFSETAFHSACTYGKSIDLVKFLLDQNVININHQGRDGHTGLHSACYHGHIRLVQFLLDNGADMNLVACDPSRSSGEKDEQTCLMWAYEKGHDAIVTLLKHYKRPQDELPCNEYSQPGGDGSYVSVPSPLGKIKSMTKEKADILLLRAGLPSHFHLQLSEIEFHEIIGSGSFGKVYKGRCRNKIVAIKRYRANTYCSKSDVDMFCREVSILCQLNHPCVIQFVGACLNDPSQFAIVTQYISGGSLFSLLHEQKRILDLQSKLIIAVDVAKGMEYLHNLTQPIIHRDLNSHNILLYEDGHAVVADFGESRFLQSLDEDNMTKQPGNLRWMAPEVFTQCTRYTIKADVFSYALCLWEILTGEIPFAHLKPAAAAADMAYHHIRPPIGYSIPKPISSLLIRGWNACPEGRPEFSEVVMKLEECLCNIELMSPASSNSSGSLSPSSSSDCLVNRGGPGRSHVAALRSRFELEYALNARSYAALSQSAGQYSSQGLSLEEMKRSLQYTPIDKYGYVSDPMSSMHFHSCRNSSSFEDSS
Recorded Endpoint: kinase still bound, per cent of control (%)
Numbers only, in %.

Examples from the recorded data:
{"columns": ["Molecule", "Unit Tag", "kinase still bound, per cent of control"],
 "data": [
  ["CCN1CCN(Cc2ccc(NC(=O)c3ccc(C)c(/C=C/c4cnc5[nH]ccc5c4OC)c3)cc2C(F)(F)F)CC1", "%", 1],
  ["COc1ccc(N(C(=O)Oc2cc(C(=O)Nc3cccc(C(F)(F)F)c3)ccc2C)c2ccnc(Nc3ccc(N4CCN(C)CC4)cc3)n2)c(OC)c1", "%", 0.6],
  ["COc1cc2c(Nc3ccc(NC(=O)c4ccccc4)cc3)ncnc2cc1OCCCN1CCOCC1", "%", 94],
  ["CC1=C(C(=O)Nc2cc3cn[nH]c3cc2F)C(c2ccc(C(F)(F)F)cc2)CC(=O)N1 (stereo not drawn)", "%", 78],
  ["CNC(=O)Nc1ccc(-c2nc(N3CC4CCC(C3)O4)c3cnn(C4CCC5(CC4)OCCO5)c3n2)cc1", "%", 59]
]}

Can you give me kinase still bound, per cent of control for all of these, one by one?
1. CCOc1cc(N2CCC(O)CC2)ccc1Nc1ncc2c(n1)N(C)c1ccccc1C(=O)N2C
2. COc1cc(N2CCC(C(N)=O)CC2)ccc1Nc1nc(N)c(Cl)c(Nc2ccccc2S(=O)(=O)C(C)C)n1
3. CC(=O)c1c(C)c2cnc(Nc3ccc(N4CCNCC4)cn3)nc2n(C2CCCC2)c1=O

1. 100
2. 100
3. 98

###

molecular target: SLK (human) (UniProt Q9H2G2); experiment: KINOMEscan competition binding; details: compound 10.0 µM
Sequence (Q9H2G2 whole entry, looked up): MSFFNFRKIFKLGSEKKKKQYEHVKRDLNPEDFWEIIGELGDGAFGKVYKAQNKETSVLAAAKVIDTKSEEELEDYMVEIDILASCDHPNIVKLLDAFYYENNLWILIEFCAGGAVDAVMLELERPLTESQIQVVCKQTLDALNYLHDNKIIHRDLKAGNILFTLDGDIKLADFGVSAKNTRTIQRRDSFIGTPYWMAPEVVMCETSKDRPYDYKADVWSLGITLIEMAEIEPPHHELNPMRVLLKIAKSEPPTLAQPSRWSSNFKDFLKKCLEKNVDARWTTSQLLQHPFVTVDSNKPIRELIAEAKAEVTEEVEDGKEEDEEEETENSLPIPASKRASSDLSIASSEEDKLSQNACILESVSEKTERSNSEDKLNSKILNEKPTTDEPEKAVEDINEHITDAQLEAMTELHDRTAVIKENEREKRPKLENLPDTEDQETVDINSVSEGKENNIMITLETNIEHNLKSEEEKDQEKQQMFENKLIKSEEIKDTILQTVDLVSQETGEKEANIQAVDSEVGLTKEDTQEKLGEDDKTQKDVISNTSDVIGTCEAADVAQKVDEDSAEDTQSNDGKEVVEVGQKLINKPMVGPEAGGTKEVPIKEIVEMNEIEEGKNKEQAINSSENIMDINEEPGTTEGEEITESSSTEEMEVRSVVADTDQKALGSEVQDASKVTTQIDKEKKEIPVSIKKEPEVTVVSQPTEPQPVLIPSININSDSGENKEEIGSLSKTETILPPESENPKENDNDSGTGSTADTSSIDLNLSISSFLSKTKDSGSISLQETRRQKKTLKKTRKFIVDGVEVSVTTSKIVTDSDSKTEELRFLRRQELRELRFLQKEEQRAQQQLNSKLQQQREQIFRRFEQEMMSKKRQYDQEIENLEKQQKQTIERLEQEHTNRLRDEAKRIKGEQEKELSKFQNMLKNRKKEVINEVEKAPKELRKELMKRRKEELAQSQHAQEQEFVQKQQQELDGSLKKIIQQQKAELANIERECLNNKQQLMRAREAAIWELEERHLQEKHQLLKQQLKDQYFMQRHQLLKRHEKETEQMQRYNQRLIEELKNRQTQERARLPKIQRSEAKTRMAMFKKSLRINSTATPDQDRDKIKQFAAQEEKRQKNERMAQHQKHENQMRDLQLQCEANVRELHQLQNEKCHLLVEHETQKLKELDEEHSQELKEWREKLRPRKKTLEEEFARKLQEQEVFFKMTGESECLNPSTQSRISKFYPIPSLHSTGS
Please respond with reported kinase still bound, per cent of control for every item in the list.
Give bare numbers, in %.

{"columns": ["Compound", "Measured Target", "kinase still bound, per cent of control [%]"],
 "data": [
  ["C=CC(=O)Nc1ccc(C(=O)c2sc(Nc3ccc(N4CCN(C)CC4)cc3OC)nc2N)cc1", "SLK (human) (UniProt Q9H2G2)", 32]
]}

Okay, here is my list. What is kinase still bound, per cent of control for each of these?
1. CCc1nc(-c2cccc(C)c2)c(-c2ccnc(NC(=O)c3ccccc3)c2)s1
2. CNC(=O)Nc1ccc(-c2nc(N3CC4CCC(C3)O4)c3cnn(C4CCC5(CC4)OCCO5)c3n2)cc1
3. COc1ccc(N(C(=O)Oc2cc(C(=O)Nc3cccc(C(F)(F)F)c3)ccc2C)c2ccnc(Nc3ccc(N4CCN(C)CC4)cc3)n2)c(OC)c1
4. N#Cc1cc(-c2ccnc(Nc3ccc(-n4cnc(-c5cccnc5)n4)cc3)n2)cc(N2CCOCC2)c1
5. COc1cc2ncnc(Nc3cccc(Cl)c3)c2cc1OC
6. COc1cc(C)c(Sc2cnc(NC(=O)c3ccc(CNC(C)C(C)C)cc3)s2)cc1C(=O)N1CCN(C(C)=O)CC1 (configuration not stated)
7. CCN1CCN(Cc2ccc(NC(=O)c3ccc(C)c(/C=C/c4cnc5[nH]ccc5c4OC)c3)cc2C(F)(F)F)CC1
8. CCCS(=O)(=O)Nc1ccc(F)c(C(=O)c2c[nH]c3ncc(Cl)cc23)c1F

41
100
0.15
10
2
31
0.6
15

###

molecular target: UniProt P23443; assay: KINOMEscan competition binding; details: compound 10.0 µM
Sequence (P23443 whole entry, looked up): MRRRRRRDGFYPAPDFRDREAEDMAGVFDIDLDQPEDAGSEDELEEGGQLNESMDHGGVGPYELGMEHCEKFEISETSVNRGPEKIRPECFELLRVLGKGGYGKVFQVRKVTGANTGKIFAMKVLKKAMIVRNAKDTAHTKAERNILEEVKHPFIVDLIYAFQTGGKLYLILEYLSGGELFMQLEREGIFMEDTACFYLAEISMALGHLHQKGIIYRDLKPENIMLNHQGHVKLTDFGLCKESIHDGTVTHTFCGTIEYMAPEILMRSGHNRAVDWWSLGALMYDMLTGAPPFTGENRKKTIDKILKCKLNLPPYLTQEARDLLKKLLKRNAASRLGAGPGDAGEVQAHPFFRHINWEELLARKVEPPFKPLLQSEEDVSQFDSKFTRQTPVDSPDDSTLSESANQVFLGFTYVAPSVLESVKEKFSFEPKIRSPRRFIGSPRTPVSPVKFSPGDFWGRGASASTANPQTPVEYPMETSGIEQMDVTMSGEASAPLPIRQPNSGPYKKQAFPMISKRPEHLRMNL
So I've got a bunch of compounds here, and I need their kinase still bound, per cent of control values.

{"columns": ["Input Smiles", "kinase still bound, per cent of control"],
 "data": [
  ["CC(=O)c1c(C)c2cnc(Nc3ccc(N4CCNCC4)cn3)nc2n(C2CCCC2)c1=O", "36%"],
  ["CCN(CCO)CCCOc1ccc2c(Nc3cc(CC(=O)Nc4cccc(F)c4)[nH]n3)ncnc2c1", "13%"],
  ["N#Cc1cc(-c2ccnc(Nc3ccc(-n4cnc(-c5cccnc5)n4)cc3)n2)cc(N2CCOCC2)c1", "52%"]
]}

Quick one: kinase still bound, per cent of control of `CCN1CCN(Cc2ccc(NC(=O)c3ccc(C)c(/C=C/c4cnc5[nH]ccc5c4OC)c3)cc2C(F)(F)F)CC1` ?
9%

###

target: SRPK3 (human); test: KINOMEscan competition binding; settings: compound 10.0 µM
Recorded Endpoint: kinase still bound, per cent of control (%)
Give bare numbers, in %.

{"columns": ["Molecule", "Unit Tag", "Meas Value"],
 "data": [
  ["CCOc1cc(N2CCC(O)CC2)ccc1Nc1ncc2c(n1)N(C)c1ccccc1C(=O)N2C", "%", 100],
  ["N#Cc1cc(-c2ccnc(Nc3ccc(-n4cnc(-c5cccnc5)n4)cc3)n2)cc(N2CCOCC2)c1", "%", 23],
  ["CC1=C(C(=O)Nc2cc3cn[nH]c3cc2F)C(c2ccc(C(F)(F)F)cc2)CC(=O)N1 (stereo not given)", "%", 98],
  ["COc1cc2ncnc(Nc3cccc(Cl)c3)c2cc1OC", "%", 93]
]}

Recorded kinase still bound, per cent of control of `CCN(CCO)CCCOc1ccc2c(Nc3cc(CC(=O)Nc4cccc(F)c4)[nH]n3)ncnc2c1` , please.
100

###

Could you please report measured kinase still bound, per cent of control for the items listed next?
target: CSNK1G3 (human); assay: KINOMEscan competition binding; conditions: compound 10.0 µM
Numbers only, in %.

{"columns": ["Compound", "Unit Tag", "Meas Value"],
 "data": [
  ["C=CC(=O)Nc1ccc(C(=O)c2sc(Nc3ccc(N4CCN(C)CC4)cc3OC)nc2N)cc1", "%", 24],
  ["COc1cc2c(Nc3ccc(NC(=O)c4ccccc4)cc3)ncnc2cc1OCCCN1CCOCC1", "%", 100],
  ["Cc1cn(-c2cc(C(=O)Nc3ccc(C)c(NC(=O)c4ccno4)c3)cc(C(F)(F)F)c2)cn1", "%", 100]
]}

Hello, I would appreciate it if you could give kinase still bound, per cent of control for each entry below.
1. CCc1nc(-c2cccc(C)c2)c(-c2ccnc(NC(=O)c3ccccc3)c2)s1
2. COc1cc2ncnc(Nc3cccc(Cl)c3)c2cc1OC
3. COc1ccc(N(C(=O)Oc2cc(C(=O)Nc3cccc(C(F)(F)F)c3)ccc2C)c2ccnc(Nc3ccc(N4CCN(C)CC4)cc3)n2)c(OC)c1
4. CCOc1cc(N2CCC(O)CC2)ccc1Nc1ncc2c(n1)N(C)c1ccccc1C(=O)N2C

17
100
100
100
